test system: HeLa; assay: Antiproliferative activity against human HeLa cells expressing wild type beta3 tubulin after 48 hrs by SRB assay; format: functional, cell-based
attribute measured: IC50 (nM)

compound	unit name	IC50
CCOC(=O)c1[nH]c(/C=N/O)c(-c2ccc(OC)c(OC)c2OC)c1Br	nM	25
CC(=O)O[C@H]1C(=O)[C@@]2(C)[C@H]([C@H](OC(=O)c3ccccc3)[C@]3(O)C[C@H](OC(=O)[C@H](O)[C@@H](NC(=O)c4ccccc4)c4ccccc4)C(C)=C1C3(C)C)[C@]1(OC(C)=O)CO[C@@H]1C[C@@H]2O	nM	21.1
CCOC(=O)c1[nH]c(C#N)c(-c2ccc(OC)c(OC)c2OC)c1Br	nM	26.1

P. CCOC(=O)c1[nH]c(Br)c(-c2ccc(OC)c(OC)c2OC)c1Br
Q. CCOC(=O)c1[nH]c(/C=N\O)c(-c2ccc(OC)c(OC)c2OC)c1Br
Lookup: Select one: P or Q . Criterion: greater recorded IC50. Provide the label of your selected option as the answer.
Found: Q
(Q: 31.3 nM, P: 15.7 nM)

1. CCOC(=O)c1[nH]c(Cl)c(-c2ccc(OC)c(OC)c2OC)c1Cl
2. CCOC(=O)c1[nH]c(C=NO)c(-c2ccc(OC)c(OC)c2OC)c1Br (mixture of isomers)
Lookup: Consider entries 1 and 2 . Which has the numerically lower IC50? Lab note: record the label of whichever item you select.
Found: 2
